Biological target: Bifunctional epoxide hydrolase 2 (Mus musculus, UniProt P34914)
Sequence (P34914 whole entry): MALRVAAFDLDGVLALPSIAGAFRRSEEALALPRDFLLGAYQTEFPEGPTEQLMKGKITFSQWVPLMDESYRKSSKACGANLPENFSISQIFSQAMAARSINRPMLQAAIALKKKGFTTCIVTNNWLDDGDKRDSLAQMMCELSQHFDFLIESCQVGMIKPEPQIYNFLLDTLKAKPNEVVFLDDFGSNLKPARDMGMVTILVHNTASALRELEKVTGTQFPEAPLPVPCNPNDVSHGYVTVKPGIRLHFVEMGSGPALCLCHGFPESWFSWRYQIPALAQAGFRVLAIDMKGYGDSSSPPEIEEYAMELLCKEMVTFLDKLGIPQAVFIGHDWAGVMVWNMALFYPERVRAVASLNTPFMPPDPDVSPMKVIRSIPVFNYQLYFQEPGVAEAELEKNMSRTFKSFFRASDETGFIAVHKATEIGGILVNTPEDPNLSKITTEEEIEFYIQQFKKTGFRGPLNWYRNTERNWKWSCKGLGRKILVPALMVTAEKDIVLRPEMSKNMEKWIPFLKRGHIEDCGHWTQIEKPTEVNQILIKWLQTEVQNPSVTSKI
Assay: Inhibition of mouse recombinant sEH using fluorogenic substrate
experimentalEndpoint: pIC50
Schema: pIC50 number; meaning minus log10 of the concentration expressed in molar units.

compound	pIC50
O=C1CCC(N2Cc3ccc(N4CCN(CC5CCN(C(=O)CCCCCCCCNC(=O)c6ccc(O[C@H]7CC[C@H](NC(=O)Nc8ccc(OC(F)(F)F)cc8)CC7)cc6)CC5)CC4)cc3C2=O)C(=O)N1 (stereo partly drawn)	8.32
O=C1CCC(N2C(=O)c3ccc(N4CCN(CC5CCN(C(=O)CCCCCCCCNC(=O)c6ccc(O[C@H]7CC[C@H](NC(=O)Nc8ccc(OC(F)(F)F)cc8)CC7)cc6)CC5)CC4)cc3C2=O)C(=O)N1 (stereo partly drawn)	6.68

Please turn your attention to the following entry.
Ask: Consider the compound shown here: O=C1CCC(N2C(=O)c3cccc(N4CCN(C(=O)CCCCCCCCNC(=O)c5ccc(O[C@H]6CC[C@H](NC(=O)Nc7ccc(OC(F)(F)F)cc7)CC6)cc5)CC4)c3C2=O)C(=O)N1 (stereo partly drawn) What is its recorded pIC50?
Result: 9.05

###

Assay: Cmax in male CD-1 mouse at 10 mg/kg, ip measured up to 24 hrs by LC-MS/MS analysis
Format: ADME, organism-based
Conditions: in vivo
experimentalEndpoint: Cmax (ng/mL)
Hi! Could you send only the number? It should be in ng/mL, unit omitted.

compound	unitsSymbol	Cmax
O=C1CCC(N2C(=O)c3ccc(N4CCN(CC5CCN(C(=O)CCCCCCCCC(=O)N6CCC(NC(=O)Nc7ccc(OC(F)(F)F)cc7)CC6)CC5)CC4)cc3C2=O)C(=O)N1 (stereo not drawn)	ng/mL	3000

Ask: # input compound: O=C1CCC(N2C(=O)c3ccc(N4CCN(CC5CCN(C(=O)CCCCCCCCNC(=O)c6ccc(O[C@H]7CC[C@H](NC(=O)Nc8ccc(OC(F)(F)F)cc8)CC7)cc6)CC5)CC4)cc3C2=O)C(=O)N1 (stereo partly drawn) ; wanted: its Cmax
Result: 2800

Ask: Could you share which Cmax value was measured for O=C1CCC(N2Cc3ccc(N4CCN(CC5CCN(C(=O)CCCCCCCCNC(=O)c6ccc(O[C@H]7CC[C@H](NC(=O)Nc8ccc(OC(F)(F)F)cc8)CC7)cc6)CC5)CC4)cc3C2=O)C(=O)N1 (stereo partly drawn) ?
Result: 3500

###

Test: Tmax in male CD-1 mouse at 10 mg/kg, ip measured up to 24 hrs by LC-MS/MS analysis
Format: ADME, organism-based
Conditions: in vivo
experimentalEndpoint: Tmax (min)
Give just the numeric value; min need not be written.

// solved cases for Tmax follow
compound	unitsSymbol	result
O=C1CCC(N2Cc3ccc(N4CCN(CC5CCN(C(=O)CCCCCCCCNC(=O)c6ccc(O[C@H]7CC[C@H](NC(=O)Nc8ccc(OC(F)(F)F)cc8)CC7)cc6)CC5)CC4)cc3C2=O)C(=O)N1 (stereo partly drawn)	min	19.8
O=C1CCC(N2C(=O)c3ccc(N4CCN(CC5CCN(C(=O)CCCCCCCCC(=O)N6CCC(NC(=O)Nc7ccc(OC(F)(F)F)cc7)CC6)CC5)CC4)cc3C2=O)C(=O)N1 (stereo not drawn)	min	19.8

API: the following record is the query input.
Ask: Form field: reported Tmax of O=C1CCC(N2C(=O)c3ccc(N4CCN(CC5CCN(C(=O)CCCCCCCCNC(=O)c6ccc(O[C@H]7CC[C@H](NC(=O)Nc8ccc(OC(F)(F)F)cc8)CC7)cc6)CC5)CC4)cc3C2=O)C(=O)N1 (stereo partly drawn)
Result: 402

###

Assay: Chemical stability of compound in cell culture medium assessed as half life measured for 24 hrs by LC-MS analysis
Format: physicochemical
In this section, each of the compounds is paired with its reported half-life.

Examples with their reported half-life follow.
compound	half-life
O=C1CCC(N2C(=O)c3ccc(N4CCN(CC5CCN(C(=O)CCCCCCCCNC(=O)c6ccc(O[C@H]7CC[C@H](NC(=O)Nc8ccc(OC(F)(F)F)cc8)CC7)cc6)CC5)CC4)cc3C2=O)C(=O)N1 (stereo partly drawn)	> 24 h
O=C(COc1cccc2c1C(=O)N(C1CCC(=O)NC1=O)C2=O)NCCOCCOCCOCCOCCNC(=O)c1ccc(O[C@H]2CC[C@H](NC(=O)Nc3ccc(OC(F)(F)F)cc3)CC2)cc1 (stereo partly drawn)	1.1 h

Ask: State the recorded half-life for this entry: O=C1CCC(N2C(=O)c3ccc(N4CCN(C(=O)CCCCCCCCNC(=O)c5ccc(O[C@H]6CC[C@H](NC(=O)Nc7ccc(OC(F)(F)F)cc7)CC6)cc5)CC4)cc3C2=O)C(=O)N1 (stereo partly drawn)
Result: > 24 h

###

Assay: Chemical stability of compound in cell culture medium assessed as parent compound remaining measured for 24 hrs by LC-MS analysis
Format: physicochemical
Details: read-out: Stability
experimentalEndpoint: remaining at 24 h (%)
Use % as the unit, but write only the number.

Ask: Consider the compound shown here: O=C1CCC(N2Cc3cc(N4CCN(C(=O)CCCCCCCCNC(=O)c5ccc(O[C@H]6CC[C@H](NC(=O)Nc7ccc(OC(F)(F)F)cc7)CC6)cc5)CC4)ccc3C2=O)C(=O)N1 (stereo partly specified) What is its recorded remaining at 24 h?
Result: 57

###

Assay: AUC (0 to infinity) in male CD-1 mouse at 10 mg/kg, ip measured up to 24 hrs by LC-MS/MS analysis
Assay type: ADME, organism-based
Conditions: in vivo
Reported AUC(0-inf) by item:

Ask: Looking for the measured AUC(0-inf) of O=C1CCC(N2Cc3ccc(N4CCN(CC5CCN(C(=O)CCCCCCCCNC(=O)c6ccc(O[C@H]7CC[C@H](NC(=O)Nc8ccc(OC(F)(F)F)cc8)CC7)cc6)CC5)CC4)cc3C2=O)C(=O)N1 (stereo partly drawn) , can you help?
Result: 31000 ng·h/mL

Ask: Recorded AUC(0-inf) for O=C1CCC(N2C(=O)c3ccc(N4CCN(CC5CCN(C(=O)CCCCCCCCNC(=O)c6ccc(O[C@H]7CC[C@H](NC(=O)Nc8ccc(OC(F)(F)F)cc8)CC7)cc6)CC5)CC4)cc3C2=O)C(=O)N1 (stereo partly drawn) , please?
Result: 58000 ng·h/mL

Ask: Value lookup for AUC(0-inf); key = O=C1CCC(N2C(=O)c3ccc(N4CCN(CC5CCN(C(=O)CCCCCCCCC(=O)N6CCC(NC(=O)Nc7ccc(OC(F)(F)F)cc7)CC6)CC5)CC4)cc3C2=O)C(=O)N1 (stereo not drawn)
Result: 61000 ng·h/mL

###

Experiment: Metabolic stability in mouse liver microsome assessed as intrinsic clearance incubated for 5 to 45 mins in presence of NADPH by UPLC-MS/MS analysis
Assay type: ADME
Details: liver microsomes, time 5-45 min, read-out: CLH
experimentalEndpoint: CLint scaled (mL/min/kg)
Record the value in mL/min/kg, omitting the unit from your answer.

Please review the following examples before continuing.
compound	CLint scaled [mL/min/kg]
O=C1CCC(N2C(=O)c3ccc(N4CCN(C(=O)CCCCCCCCNC(=O)c5ccc(O[C@H]6CC[C@H](NC(=O)Nc7ccc(OC(F)(F)F)cc7)CC6)cc5)CC4)cc3C2=O)C(=O)N1 (stereo partly drawn)	170
O=C1CCC(N2C(=O)c3ccc(N4CCN(CC5CCN(C(=O)CCCCCCCCNC(=O)c6ccc(O[C@H]7CC[C@H](NC(=O)Nc8ccc(OC(F)(F)F)cc8)CC7)cc6)CC5)CC4)cc3C2=O)C(=O)N1 (stereo partly drawn)	43

The record that follows has no CLint scaled shown yet.
Ask: Item O=C(COc1cccc2c1C(=O)N(C1CCC(=O)NC1=O)C2=O)NCCOCCOCCOCCOCCNC(=O)c1ccc(O[C@H]2CC[C@H](NC(=O)Nc3ccc(OC(F)(F)F)cc3)CC2)cc1 (stereo partly drawn) has what recorded CLint scaled?
Result: 9200

###

# maps each entry to its half-life
Test: Metabolic stability in mouse liver microsome assessed as half life incubated for 5 to 45 mins in presence of NADPH by UPLC-MS/MS analysis
Assay type: ADME
Conditions: liver microsomes, time 5-45 min
Just the number please, in min, no unit attached.

compound	unitsSymbol	half-life
O=C1CCC(N2C(=O)c3ccc(N4CCN(C(=O)CCCCCCCCNC(=O)c5ccc(O[C@H]6CC[C@H](NC(=O)Nc7ccc(OC(F)(F)F)cc7)CC6)cc5)CC4)cc3C2=O)C(=O)N1 (stereo partly drawn)	min	31

Ask: Quick check: half-life of O=C(COc1cccc2c1C(=O)N(C1CCC(=O)NC1=O)C2=O)NCCOCCOCCOCCOCCNC(=O)c1ccc(O[C@H]2CC[C@H](NC(=O)Nc3ccc(OC(F)(F)F)cc3)CC2)cc1 (stereo partly drawn) ?
Result: 0.59

###

As shown below, each of these compounds has a reported half-life value.
Experiment: Half life in male CD-1 mouse at 10 mg/kg, ip measured up to 24 hrs by LC-MS/MS analysis
Assay type: ADME, organism-based
Settings: in vivo
# output: numeric value plus its unit

Answered cases to consult:
compound	experimentalEndpoint	result
O=C1CCC(N2Cc3ccc(N4CCN(CC5CCN(C(=O)CCCCCCCCNC(=O)c6ccc(O[C@H]7CC[C@H](NC(=O)Nc8ccc(OC(F)(F)F)cc8)CC7)cc6)CC5)CC4)cc3C2=O)C(=O)N1 (stereo partly drawn)	half-life	7.1 h
O=C1CCC(N2C(=O)c3ccc(N4CCN(CC5CCN(C(=O)CCCCCCCCNC(=O)c6ccc(O[C@H]7CC[C@H](NC(=O)Nc8ccc(OC(F)(F)F)cc8)CC7)cc6)CC5)CC4)cc3C2=O)C(=O)N1 (stereo partly drawn)	half-life	12 h

Let us examine a further case.
Ask: For the compound O=C1CCC(N2C(=O)c3ccc(N4CCN(CC5CCN(C(=O)CCCCCCCCC(=O)N6CCC(NC(=O)Nc7ccc(OC(F)(F)F)cc7)CC6)CC5)CC4)cc3C2=O)C(=O)N1 (stereo not drawn) , what half-life is on record?
Result: 5.8 h

All values here come from ChEMBL document CHEMBL6071207.
